target_of_assay: 4'-phosphopantetheinyl transferase ffp (Bacillus subtilis)
protocol: qHTS Assay for Inhibitors of Bacillus subtilis Sfp phosphopantetheinyl transferase (PPTase);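 as to largest response in the series, negative = inhibition: 0% = enzyme reaction without inhibitor and -100% = no enzyme wells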
setup_conditions: Biochemical Sfp PPTase activity
Out of some 310,000 compounds screened, about 11,000 (3.5%) were called active. Roughly 4% stayed inconclusive and do not appear here. The entries come from a sample that favours actives as a whole.
experimental_endpoint: largest response in the series, negative = inhibition (%)

compound	quantitative_readout
CC1CCN(C(=O)c2ccc3c(c2)NC(=O)CN3)CC1	6.69
O=C(c1cccc(F)c1)N1CCC2(CC1)CCN(c1ccccc1)CC2	2.37
Cc1cccc(OCc2ccc(C(=O)Nc3ccc(F)cc3)cc2)c1	10.4
Cc1cc(NS(=O)(=O)c2ccc(NC(=O)C(C)Oc3cccc(C)c3C)cc2)nc(C)n1 (configuration not stated)	8.85
O=C(Nc1cc(C(F)(F)F)ccc1Cl)c1cc(C2CC2)on1	15.4
CC(C(=O)NC1CCS(=O)(=O)C1)N1C(=O)/C(=C/c2ccc(Cl)cc2)SC1=S (configuration not stated)	-16.1
Cc1ccc(-c2ccnc3[nH]n(-c4ccccc4)c(=O)c23)cc1	9.66

---

target_of_assay: 4'-phosphopantetheinyl transferase ffp (Bacillus subtilis) (UniProt Q9F4F7)
protocol: qHTS Assay for Inhibitors of Bacillus subtilis Sfp phosphopantetheinyl transferase (PPTase);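 also: the enzyme is Sfp with the accession as filed and its product quenches rhodamine fluorescence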;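 as to largest response in the series, negative = inhibition: 0% = enzyme reaction without inhibitor and -100% = no enzyme wells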
setup_conditions: Biochemical Sfp PPTase activity
Out of some 310,000 compounds screened, about 11,000 (3.5%) were called active. Another 4% or so got no clear call; they are omitted. Shown is part of a subset that was picked to be rich in actives.
experimental_endpoint: largest response in the series, negative = inhibition (%)

compound	target_of_assay	output_unit	quantitative_readout
O=C(CSc1nnc(-c2cccs2)n1-c1ccccc1)NCc1ccco1	4'-phosphopantetheinyl transferase ffp (Bacillus subtilis) (UniProt Q9F4F7)	%	14.2
COc1ccc(N2CCN(Cc3cc(=O)oc4ccc5ccccc5c34)CC2)cc1	4'-phosphopantetheinyl transferase ffp (Bacillus subtilis) (UniProt Q9F4F7)	%	4.08
Cc1cc(-c2ccc(S(=O)(=O)N3CCc4ccccc4C3)s2)on1	4'-phosphopantetheinyl transferase ffp (Bacillus subtilis) (UniProt Q9F4F7)	%	12.5
COC(=O)[C@@]1(Cc2ccc(F)cc2)[C@H]2c3cc(C(=O)N4CCCC4)n(Cc4ccc(OC(F)(F)F)cc4)c3C[C@H]2CN1C(=O)c1ccccc1	4'-phosphopantetheinyl transferase ffp (Bacillus subtilis) (UniProt Q9F4F7)	%	24.5
COC(=O)c1ccc(N2CCOCC2)c(NC(=O)c2ccc(Br)o2)c1	4'-phosphopantetheinyl transferase ffp (Bacillus subtilis) (UniProt Q9F4F7)	%	6.59
CCOc1ccc(N/C(N)=N/c2nc(C)c(C)c(=O)[nH]2)cc1	4'-phosphopantetheinyl transferase ffp (Bacillus subtilis) (UniProt Q9F4F7)	%	12.8
Cc1ccc(CN2CCN(Cc3cn(C)nc3-c3ccccc3)CC2CCO)o1 (configuration not stated)	4'-phosphopantetheinyl transferase ffp (Bacillus subtilis) (UniProt Q9F4F7)	%	8.78
CCCc1cc(=O)oc2c(C)c(OCC(=O)Nc3ccccn3)ccc12	4'-phosphopantetheinyl transferase ffp (Bacillus subtilis) (UniProt Q9F4F7)	%	-8.94
Cc1cc(=O)oc2c(C)c(OCC(=O)NCCc3ccc(S(N)(=O)=O)cc3)ccc12	4'-phosphopantetheinyl transferase ffp (Bacillus subtilis) (UniProt Q9F4F7)	%	11
Cc1ccc(OCC(=O)Nc2ccccc2C(=O)NC2CC2)cc1C	4'-phosphopantetheinyl transferase ffp (Bacillus subtilis) (UniProt Q9F4F7)	%	-9.75
O=C(Nc1ccc(O)cc1)c1ccccc1O	4'-phosphopantetheinyl transferase ffp (Bacillus subtilis) (UniProt Q9F4F7)	%	-1.36
c1ccc2nc(C3=NCCN3)cnc2c1	4'-phosphopantetheinyl transferase ffp (Bacillus subtilis) (UniProt Q9F4F7)	%	2.82
O=C(CN1C(=O)S/C(=C\c2ccccc2F)C1=O)NCCCn1ccnc1	4'-phosphopantetheinyl transferase ffp (Bacillus subtilis) (UniProt Q9F4F7)	%	16.3
CCOC(=O)CSc1nc2sc3c(c2c(=O)[nH]1)CC(C)(C)OC3	4'-phosphopantetheinyl transferase ffp (Bacillus subtilis) (UniProt Q9F4F7)	%	-10.3
O=c1ccc2cc(S(=O)(=O)NCCCc3ccccc3)ccc2[nH]1	4'-phosphopantetheinyl transferase ffp (Bacillus subtilis) (UniProt Q9F4F7)	%	6.03
C/[N+]([O-])=C\c1ccc([N+](=O)[O-])o1	4'-phosphopantetheinyl transferase ffp (Bacillus subtilis) (UniProt Q9F4F7)	%	10
Cc1oc2cc3oc(=O)ccc3cc2c1C	4'-phosphopantetheinyl transferase ffp (Bacillus subtilis) (UniProt Q9F4F7)	%	6.39

---

target_of_assay: 4'-phosphopantetheinyl transferase ffp (Bacillus subtilis) (UniProt Q9F4F7)
protocol: qHTS Assay for Inhibitors of Bacillus subtilis Sfp phosphopantetheinyl transferase (PPTase); also: potency is read from the fitted curve at half-maximal effect;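 also: the enzyme is Sfp with the accession as filed and its product quenches rhodamine fluorescence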
setup_conditions: Biochemical Sfp PPTase activity
Screen size: about 310,000 compounds; about 11,000 (3.5%) were called active. Not shown: some 4% with an inconclusive outcome. The list comes from a sample in which actives are over-represented; it also holds close analogues and randomly drawn compounds.
Items are presented alongside their recorded Potency.
experimental_endpoint: Potency

compound	result
Clc1ccccc1CSc1nnc(-c2ccco2)c(-c2ccco2)n1	20 µM (active)
Cc1ccc(S(=O)(=O)C(C#N)c2nc3ccccc3nc2N2CCCC2)cc1C (stereo not given)	50.1 µM (active)
CCCCN=C1N/C(=C\c2ccco2)C(=O)N1c1ccccc1	56.2 µM (active)
Cc1cccc(NC(=O)c2sc3nc(N4CCOCC4)c4c(c3c2N)CCCC4)c1	17.8 µM (active)
CCOc1ccc2nc(NCCNS(=O)(=O)c3ccccc3)c(C#N)cc2c1	79.4 µM (active)

---

target_of_assay: 4'-phosphopantetheinyl transferase ffp (Bacillus subtilis) (UniProt Q9F4F7)
protocol: qHTS Assay for Inhibitors of Bacillus subtilis Sfp phosphopantetheinyl transferase (PPTase);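 also: the enzyme is Sfp with the accession as filed and its product quenches rhodamine fluorescence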;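 as to largest response in the series, negative = inhibition: 0% = enzyme reaction without inhibitor and -100% = no enzyme wells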
setup_conditions: Biochemical Sfp PPTase activity
Out of some 310,000 compounds screened, about 11,000 (3.5%) were called active. Another 4% or so got no clear call; they are omitted. The sample holds actives, similar compounds and a random draw of the others, so the mix is not that of the screen.
experimental_endpoint: largest response in the series, negative = inhibition (%)

compound	quantitative_readout
COc1ccc(CCN2CC(C(=O)NCCN3CCNC3=O)CCC2=O)cc1 (stereo not given)	19
COc1ccc(N2CCN(S(=O)(=O)CCNC(=O)C34CC5CC(CC(C5)C3)C4)CC2)cc1	2.52
CCN(CC)/[N+]([O-])=N/Oc1cc(O/[N+]([O-])=N/N2CCCC2CO)c([N+](=O)[O-])cc1[N+](=O)[O-] (stereo not given)	-6.67
COc1ccc(-c2nc(SCC(=O)N3CCCC3)n[nH]2)cc1	14.1
O=C(CCc1nnc(Cc2ccc3c(c2)OCO3)o1)NCCc1ccccc1Cl	-0.572

---

target_of_assay: 4'-phosphopantetheinyl transferase ffp (Bacillus subtilis)
protocol: qHTS Assay for Inhibitors of Bacillus subtilis Sfp phosphopantetheinyl transferase (PPTase);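 also: the enzyme is Sfp with the accession as filed and its product quenches rhodamine fluorescence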;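 as to largest response in the series, negative = inhibition: 0% = enzyme reaction without inhibitor and -100% = no enzyme wells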
setup_conditions: Biochemical Sfp PPTase activity
The campaign covered roughly 310,000 compounds. About 11,000 (3.5%) were called active. About 4% were inconclusive and are not listed. Many of the other results were omitted from the sample, so actives are more common in it than they were.
Consider the following molecules and their measured largest response in the series, negative = inhibition readings.
experimental_endpoint: largest response in the series, negative = inhibition (%)

molecule	output_unit	quantitative_readout
CCOC(=O)N1CCN(C(=O)C(C)NC(=O)c2ccco2)CC1 (stereo not given)	%	26.5
c1cnc(N2CCN(c3ccc4ccccc4n3)CC2)nc1	%	-3.4
O=C(NCCCn1ccnc1)C1CCCN(S(=O)(=O)c2cc(Cl)ccc2Cl)C1 (stereo not given)	%	16.2
CCc1ccccc1NC(=O)[C@@H]1CCC(=O)N1C1OC(=O)c2c1ccc(OC)c2OC (stereo not given in full)	%	9.06
O=C(COc1ccc(Cl)cc1Cl)N/N=C/c1ccccn1	%	-29.7
CCOC(=O)CC1(NC(=O)c2cc(COc3cncc(Cl)c3)on2)CCCCC1	%	-1.1
CC(C)(C)C(=O)NC1CC2CCCC(C1)N2C(=O)Nc1ccccc1F (stereo not given)	%	15.8
CCOc1ccc(S(=O)(=O)NCC2CCCO2)cc1 (stereo not given)	%	12.6
CCOC(=O)C1=C(c2ccccc2)NC(=O)NC1c1cc(OCC)c(O)c([N+](=O)[O-])c1 (stereo not given)	%	10.9
CCCC(=O)N(CCN1CCOCC1)c1nc2ccc(OCC)cc2s1	%	4.61
O=C(N/N=C/c1ccc(O)c2ccccc12)c1cccnc1	%	7.11
O=C(Nc1ccccc1)c1ccco1	%	19.8
Cc1ccc(NC(=O)/C(=C\c2ccccc2)NC(=O)c2ccco2)cc1	%	12.3
Cc1cccc(NC(=O)N2CCCCCC2)c1C	%	3.74
Cc1cccc(N2CCN(C(=O)CCS(=O)(=O)c3ccc4c(c3)NC(=O)C(C)S4)CC2)c1C (stereo not given)	%	10.9
O=C(CSCC(=O)Nc1cccc([N+](=O)[O-])c1)Nc1ccccc1	%	7.95
COC(=O)c1ccc2c(=O)n(CCN3CCOCC3)c(SCC(=O)Nc3cccc(OC)c3)nc2c1	%	0.982
O=C(c1ccc2ccccc2n1)N1CCN(c2ccccc2Cl)CC1	%	-10.1
CN1CCN(c2ncc3nc(-c4ccc(Cl)cc4)c(=O)n(-c4ccccc4)c3n2)CC1	%	-4.61
O=C1C(=O)N(CCCO)C(c2ccccc2)/C1=C(\O)c1ccc(Br)cc1 (stereo not given)	%	6.17
